Test summary: Quantitative highthroughput screen to assess conditional lethalithy of SEM cells grown in RPMI1640 with unreated serum (RPMI+s) (AID 1963883); note: nearly all actives have a fitted effect of over 35% in size; note: potency is the fitted concentration of half-maximal effect;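 for viability: 100% = DMSO wells and 0% = empty wells without cells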
Experimental context: SEM B-ALL cells, CellTiter-Glo viability, 48 h; series mostly up to 45.8 µM
Results filed as inconclusive are left out. Activity calls are given as the source filed them. Calls come from the whole dose curve; as a rule, active = well fitted cell-killing curve with a large enough effect; inconclusive = small, poorly fitted or top-dose-only effect, or effect the other way; inactive = no such curve, though single readings can be large or run the other way.
Measured endpoint: Potency

CN(C)c1nc(Cc2ccc(NC(=O)c3ccc4ccccc4c3)cc2)nc(Cl)c1CC(=O)O ... inactive
NCC(=O)Nc1ccc(-n2nc(C(F)(F)F)cc2-c2ccc3c(ccc4ccccc43)c2)cc1 ... inactive
Cc1nc2c([nH]1)CCN(C(=O)c1ccc(NC(=O)c3ccccc3-c3ccccc3)cc1)c1ccccc1-2 ... inactive
CN(C)CCCN=c1c2ccccc2n(C)c2[nH]c(=O)n(C)c(=O)c12 ... 10.5 µM (active)
Cc1cnc(CNC(=O)c2c(=O)c3ccc(N4CCCN(C)CC4)nc3n3c2sc2ccccc23)cn1 ... 2.88 µM (active)

Lookup result for N=C(N)c1ccc2cc(OC(=O)c3ccc(N=C(N)N)cc3)ccc2c1 ; measured Potency: inactive

Lookup result for CN1CCCN(C(=O)c2cccc(-c3ccc(C=C4C(=O)Nc5ccc(Cl)cc54)o3)c2)CC1 ; measured Potency: 1.32 µM (active)

Lookup result for CCOC(=O)O[C@]1(C(=O)OCCl)CC[C@@H]2[C@H]3CCC4=CC(=O)C=C[C@]4(C)[C@@H]3[C@@H](O)C[C@@]21C ; measured Potency: inactive

Lookup result for CN1C(=O)c2sccc2N(C)c2nc(Nc3ccc(S(N)(=O)=O)cc3)ncc21 ; measured Potency: 2.34 µM (active)

Lookup result for CNC(=O)c1ccc2cc(C3(O)CCn4cncc43)ccc2c1 (stereo not given) ; measured Potency: inactive

Lookup result for CCOC(=O)C(C)(C)Oc1ccc(Cl)cc1 ; measured Potency: inactive

Lookup result for CC[C@H]1OC(=O)[C@H](C)C(=O)[C@H](C)[C@@H](O[C@H]2O[C@H](C)C[C@H](N(C)C)[C@@H]2O)[C@](C)(OC)C[C@@H](C)C(=O)[C@H](C)[C@H]2N(CCCCn3cnc(-c4cccnc4)c3)C(=O)O[C@]12C ; measured Potency: inactive

Lookup result for CCOC(=O)[C@H]1O[C@H]1C(=O)N[C@@H](CC(C)C)C(=O)NCCC(C)C ; measured Potency: inactive

Lookup result for O=C(NC1CC1)c1cccc(-c2ccc3c(NC(=O)C4CC4)n[nH]c3c2)c1 ; measured Potency: 14.8 µM (active)

Lookup result for Cc1[nH]c(C=C2C(=O)Nc3ccc(S(=O)(=O)N(C)c4cccc(Cl)c4)cc32)c(C)c1C(=O)N1CCN(C)CC1 ; measured Potency: 11.8 µM (active)

###

Test summary: Quantitative highthroughput screen to assess conditional lethalithy of SEM cells grown in RPMI1640 with unreated serum (RPMI+s) (AID 1963883); note: nearly all actives have a fitted effect of over 35% in size;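 for viability: 100% = DMSO wells and 0% = empty wells without cells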
Experimental context: SEM B-ALL cells, CellTiter-Glo viability, 48 h; series mostly up to 45.8 µM
Results filed as inconclusive are left out. Activity calls are given as the source filed them. Calls come from the whole dose curve; as a rule, active = well fitted cell-killing curve with a large enough effect; inconclusive = small, poorly fitted or top-dose-only effect, or effect the other way; inactive = no such curve, though single readings can be large or run the other way.
Please state which outcome applies, choosing from 1 (yes) (active), 0 (no) (inactive)

CCCCn1c(=O)n(Cc2ccccc2F)c(=O)c2[nH]c(Cc3ccc(NC(C)=O)cc3)nc21 ... 0 (no)
CNC(=O)c1ccc(Nc2ncc(C(F)(F)F)c(NCc3nccnc3N(C)S(C)(=O)=O)n2)cc1 ... 1 (yes)
CN1CCN(c2ncc(-c3cc(Cl)cc(Cl)c3Cl)c(N)n2)CC1 ... 0 (no)

Consider the record given below.
Query: // outcome(item) with item = Cc1ccc(NC(=O)c2cccc(N(C)C)c2)cc1NC(=O)c1ccc(O)cc1
Response: 0 (no)

Recorded values, source PubChem BioAssay (NCATS).
